Experimental protocol: Pharmacokinetic evaluation of plasma levels of theophylline after oral dosing
Assay type: in vivo, A/J mice
Study conditions: A/J, mouse, plasma; oral dose 0.3 mg/kg, 30 minutes post dosing, mean ± SD
Description: The collected blood was mixed and decanted into eppendorf tubes before centrifugation in a microftige. Plasma was collected and stored at −80° C. prior to analysis by an HPLC/MS/MS method. The equipment used in the measurement of plasma levels were a Micromann Quatro Micro Mass Spectrometer (Micromass UK Limited) and a Waters 2795 Alliance HT liquid chromatograph (Waters USA). […]
Quantity kind: concentration at 30 min (ng/mL)
Write down the numeric answer in ng/mL and omit the unit.

## Task Can you share its concentration at 30 min? I mean this molecule: Cn1c(=O)c2[nH]cnc2n(C)c1=O [Theophylline]
## Result 140
